# Test system: MDA-MB-231 breast
# measurement.notes: NCI-60 one-dose screen, 48 h (100 = growth as untreated, 0 = no growth, -100 = all killed)
# assay.conditions: 10 µM unless noted
This is part of a sample that, as a whole, favours compounds with a hit. Of some 83,000 tested, about 20% had one in any assay.
# MET = growth below 90% (exclusive); NOT MET = growth at/above 90%

Reference set (3 entries):
Cc1ccc(C(C)C)c(OCc2ccc(C(=O)N/N=C/c3cccc(O)c3O)cc2)c1 = MET
COc1cc(/C(=C2/O[C@@H]([C@H]3COC(C)(C)O3)[C@H]3OC(C)(C)O[C@@H]23)c2ccc3c(c2)OCO3)cc(OC)c1OC = MET
N=C(N)N=Nc1ccc(NN=C(N)N)cc1 = MET

Hi there! Is growth for CCC(C)(C)c1ccc(OCCCCCCN2CCN(c3ccc(C)c(Cl)c3)CC2)cc1 below 90%, do you know? NOT MET

Hello, is growth of the following compound strictly smaller than 90%? CCOC(=O)c1cc(-c2ccc(OC)cc2)[nH]c1NNC(=O)CCOC NOT MET

###

Reported growth is given for each of the following compounds.
# Test system: NCI/ADR-RES ovarian
# measurement.notes: NCI-60 one-dose screen, 48 h (100 = growth as untreated, 0 = no growth, -100 = all killed)
# assay.conditions: 10 µM unless noted
Compounds without any hit were thinned out: in the full panel of roughly 83,000, 20% have a hit.
Report only the number, with the unit % understood.

API: value(readout=growth, system=NCI/ADR-RES ovarian) for record CCCCCCCCCc1cc[n+](CC(=O)c2ccc([N+](=O)[O-])cc2)cc1 66.3

Which measured growth belongs to CC(=O)Nc1nc(C)c(C(=O)NN)s1 , tested on NCI/ADR-RES ovarian? 98.6

Can you look up growth on NCI/ADR-RES ovarian for c1ccc(C(=NNc2nc3ccccc3o2)c2ccccn2)nc1 ? -3.58

Field: growth (NCI/ADR-RES ovarian). Entry: Cc1ccc(S(=O)(=O)N/N=C2\CC3CCC2C3)cc1 (centres undefined) 119

###

# System: T-47D breast
# measurement.notes: NCI-60 one-dose screen, 48 h
# assay.conditions: 10 µM unless noted
About 83,000 compounds went through this panel and 20% of them were active in at least one assay; those are over-represented in the sample as a whole. Active and inactive are the calls of the source. How the source made its calls: active means growth percent below 10; inactive means the rest.
Lab note: assign the record to one of 1 (yes) = active, 0 (no) = inactive

Illustrative cases are given below, each with its answer.
COC(=O)[C@H](Cc1cn(C)cn1)NC(=O)[C@@H](NC(=O)Nc1cc(C(F)(F)F)cc(C(F)(F)F)c1)C(C)(C)C = 1 (yes)
COc1ccc(C(=O)N2N=C(c3ccc(Br)cc3)CC2c2cn(-c3ccccc3)nc2-c2ccccc2)cc1 (centres undefined) = 0 (no)
S=C(N/N=C/c1cc(Cl)cc(Cl)c1)NC12CC3CC(CC(C3)C1)C2 = 1 (yes)
CC(=O)Nc1nc(C)c(C(=O)NNS(=O)(=O)c2ccccc2)s1 = 0 (no)

Name the outcome recorded for C/C=C/C/C=C/[C@H](C)C[C@H](O)[C@@H]1C[C@@H]2O[C@H]2/C=C/[C@@H]2OC(C)(C)O[C@H]2/C=C/C[C@H](C)CC(=O)O1 in the assay. 1 (yes)

// outcome(item) with item = CC1(C)C(O)NC(Cl)=C(C#N)C1(C#N)C#N (centres undefined) 0 (no)

Could you kindly confirm the outcome this assay logged for COC(=O)C(C(=O)OC)C(Br)C(Br)C(Br)c1ccccc1 (centres undefined) ? 1 (yes)

In this assay, the call recorded for CC(=O)Nc1nc(C)c(C(=O)N/N=C/c2cccs2)s1 was what? 0 (no)

// outcome(item) with item = CCCCCc1ccnc(CC(=O)c2ccc(OC)cc2)c1 0 (no)
